protocolDescription: AUC (0 to infinity) in Fischer rat at 30 mg/kg, po
Format: ADME, organism-based
Design: time infinity, dose 30 mg/kg, route oral
testConditions: plasma
Listing: AUC(0-inf) of selected compounds
outcomeMeasure: AUC(0-inf)

[
  {
    "compoundStructure": "CCOC(=O)c1ccccc1O[C@H]1CC[C@H]2CN[C@H](C(=O)OCC)C[C@H]2C1.Cl",
    "outcomeMeasure": "AUC(0-inf)",
    "measurement": "24700 ng·h/mL"
  },
  {
    "compoundStructure": "CCOC(=O)c1ccc(-c2ccccc2)cc1O[C@H]1CC[C@H]2CN[C@H](C(=O)OCC)C[C@H]2C1.Cl",
    "outcomeMeasure": "AUC(0-inf)",
    "measurement": "7230 ng·h/mL"
  },
  {
    "compoundStructure": "CCOC(=O)c1ccccc1S[C@H]1CC[C@H]2CN[C@H](C(=O)OCC)C[C@H]2C1.Cl",
    "outcomeMeasure": "AUC(0-inf)",
    "measurement": "7530 ng·h/mL"
  },
  {
    "compoundStructure": "CCOC(=O)c1ccc(Cl)cc1O[C@H]1CC[C@H]2CN[C@H](C(=O)OCC)C[C@H]2C1.Cl",
    "outcomeMeasure": "AUC(0-inf)",
    "measurement": "9190 ng·h/mL"
  }
]

====

protocolDescription: Cmax in Fischer rat at 30 mg/kg, po
Type: ADME, organism-based
Set-up: dose 30 mg/kg, route oral
testConditions: in vivo
The compounds listed here are annotated with their Cmax.

[
  {
    "compoundStructure": "CCOC(=O)c1ccc(Cl)cc1O[C@H]1CC[C@H]2CN[C@H](C(=O)OCC)C[C@H]2C1.Cl",
    "Cmax / ng/mL": 6450
  },
  {
    "compoundStructure": "CCOC(=O)c1ccccc1S[C@H]1CC[C@H]2CN[C@H](C(=O)OCC)C[C@H]2C1.Cl",
    "Cmax / ng/mL": 2980
  },
  {
    "compoundStructure": "CCOC(=O)c1ccc(-c2ccccc2)cc1O[C@H]1CC[C@H]2CN[C@H](C(=O)OCC)C[C@H]2C1.Cl",
    "Cmax / ng/mL": 2700
  },
  {
    "compoundStructure": "CCOC(=O)c1ccccc1O[C@H]1CC[C@H]2CN[C@H](C(=O)OCC)C[C@H]2C1.Cl",
    "Cmax / ng/mL": 9200
  }
]

====

protocolDescription: Cmax in Fischer rat at 10 mg/kg, po
Format: ADME, organism-based
Parameters: dose 10 mg/kg, route oral
testConditions: in vivo
outcomeMeasure: Cmax

[
  {
    "compoundStructure": "Cl.O=C(O)c1ccc(C[C@H]2CC[C@H]3CN[C@H](C(=O)O)C[C@H]3C2)cc1",
    "outcomeMeasure": "Cmax",
    "measurement": "539 ng/mL"
  }
]

====

systemUnderTest: Glutamate receptor ionotropic, kainate 1 (Homo sapiens)
Sequence (P39086 whole entry): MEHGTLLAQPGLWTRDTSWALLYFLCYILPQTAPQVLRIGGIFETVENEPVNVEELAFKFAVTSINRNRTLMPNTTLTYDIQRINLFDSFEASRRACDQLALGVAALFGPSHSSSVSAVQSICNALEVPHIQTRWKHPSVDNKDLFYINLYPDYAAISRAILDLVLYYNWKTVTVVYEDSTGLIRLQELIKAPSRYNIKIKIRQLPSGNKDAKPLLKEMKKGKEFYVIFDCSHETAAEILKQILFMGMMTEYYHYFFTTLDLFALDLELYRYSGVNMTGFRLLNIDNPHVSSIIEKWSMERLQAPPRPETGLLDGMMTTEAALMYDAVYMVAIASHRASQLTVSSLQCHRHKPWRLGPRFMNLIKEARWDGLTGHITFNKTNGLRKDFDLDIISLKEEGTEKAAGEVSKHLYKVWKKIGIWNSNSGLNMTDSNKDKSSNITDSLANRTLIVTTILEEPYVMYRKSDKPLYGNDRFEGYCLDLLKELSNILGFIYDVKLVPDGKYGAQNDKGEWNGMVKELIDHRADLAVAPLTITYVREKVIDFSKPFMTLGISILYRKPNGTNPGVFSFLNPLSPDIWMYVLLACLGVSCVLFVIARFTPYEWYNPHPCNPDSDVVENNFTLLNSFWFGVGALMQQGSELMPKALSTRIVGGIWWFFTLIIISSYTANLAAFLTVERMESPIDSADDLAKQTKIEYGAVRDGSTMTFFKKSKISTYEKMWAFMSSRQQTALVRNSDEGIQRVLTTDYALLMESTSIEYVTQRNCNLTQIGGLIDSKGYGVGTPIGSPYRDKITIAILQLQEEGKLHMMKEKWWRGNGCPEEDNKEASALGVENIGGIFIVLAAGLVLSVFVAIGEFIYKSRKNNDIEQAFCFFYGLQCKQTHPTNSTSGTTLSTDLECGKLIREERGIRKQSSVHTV
protocolDescription: Binding affinity to GluK1 receptor (unknown origin)
pKi: −log10 of the molar value.
outcomeMeasure: pKi

[
  {
    "compoundStructure": "O=C(O)c1cccc(C[C@H]2CC[C@H]3CN[C@H](C(=O)O)C[C@H]3C2)c1",
    "systemUnderTest": "Glutamate receptor ionotropic, kainate 1 (Homo sapiens)",
    "measurement": 4.80
  },
  {
    "compoundStructure": "Cc1ccc(O[C@H]2CC[C@H]3CN[C@H](C(=O)O)C[C@H]3C2)c(C(=O)O)c1",
    "systemUnderTest": "Glutamate receptor ionotropic, kainate 1 (Homo sapiens)",
    "measurement": 5.00
  },
  {
    "compoundStructure": "COc1ccc(O[C@H]2CC[C@H]3CN[C@H](C(=O)O)C[C@H]3C2)c(C(=O)O)c1",
    "systemUnderTest": "Glutamate receptor ionotropic, kainate 1 (Homo sapiens)",
    "measurement": 4.72
  },
  {
    "compoundStructure": "O=C(O)c1c(F)cccc1O[C@H]1CC[C@H]2CN[C@H](C(=O)O)C[C@H]2C1",
    "systemUnderTest": "Glutamate receptor ionotropic, kainate 1 (Homo sapiens)",
    "measurement": 5.01
  },
  {
    "compoundStructure": "O=C(O)c1ccc(-c2ccccc2)cc1O[C@H]1CC[C@H]2CN[C@H](C(=O)O)C[C@H]2C1",
    "systemUnderTest": "Glutamate receptor ionotropic, kainate 1 (Homo sapiens)",
    "measurement": 6.30
  },
  {
    "compoundStructure": "O=C(O)c1ccccc1S[C@H]1CC[C@H]2CN[C@H](C(=O)O)C[C@H]2C1",
    "systemUnderTest": "Glutamate receptor ionotropic, kainate 1 (Homo sapiens)",
    "measurement": 6.10
  },
  {
    "compoundStructure": "O=C(O)c1cc(Cl)ccc1O[C@H]1CC[C@H]2CN[C@H](C(=O)O)C[C@H]2C1",
    "systemUnderTest": "Glutamate receptor ionotropic, kainate 1 (Homo sapiens)",
    "measurement": 5.82
  }
]
